target: mast cell tryptase (Homo sapiens); test: Inactivation rate of mast cell tryptase, incubation method; format: biochemical; conditions: Table II; 0.07 μM tryptase, 20-66 μM inhibitor, Hepes pH 7.5, heparin, 9% glycerol, 8% DMSO, 25° C.; NI = no inhibition
Sequence (Q15661 31-275): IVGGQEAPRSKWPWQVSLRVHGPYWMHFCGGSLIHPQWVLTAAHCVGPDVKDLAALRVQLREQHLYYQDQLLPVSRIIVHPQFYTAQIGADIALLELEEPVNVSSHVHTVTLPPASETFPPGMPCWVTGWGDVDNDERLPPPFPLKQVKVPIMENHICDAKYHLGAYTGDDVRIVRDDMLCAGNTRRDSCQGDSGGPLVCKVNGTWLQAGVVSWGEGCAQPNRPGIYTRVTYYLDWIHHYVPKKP
Please go through the items and note down their kobs /[I] mast cell tryptase.
Answers are plain numbers, in M⁻¹ s⁻¹.

>>> numeric_result("CC(C)C(NC(=O)OCc1ccccc1)C(=O)NC(c1ccc(C(=N)N)cc1)P(=O)(Oc1ccccc1)Oc1ccccc1 (mixture of isomers)")
21.2
>>> numeric_result("C[C@H](NC(=O)[C@H](CC(=O)OC(C)(C)C)NC(=O)OCc1ccccc1)C(=O)NC(c1ccc(C(=N)N)cc1)P(=O)(Oc1ccccc1)Oc1ccccc1 (some centres unmarked)")
3
>>> numeric_result("Cl.N=C(N)c1ccc(C(NC(=O)C=Cc2cccs2)P(=O)(Oc2ccccc2)Oc2ccccc2)cc1 (centres unmarked)")
1

// each listed molecule needs a value for kobs /[I] mast cell tryptase
1. N=C(N)c1ccc(C(NC(=O)C2CCCN2C(=O)CCc2ccccc2)P(=O)(Oc2ccccc2)Oc2ccccc2)cc1 (centres unmarked)
2. N=C(N)c1ccc(C(NC(=O)C2CCCN2C(=O)CNS(=O)(=O)Cc2ccccc2)P(=O)(Oc2ccccc2)Oc2ccccc2)cc1 (mixture of isomers)

### Response
[0.4, 2.0]

* * *

target: factor Xa (Homo sapiens); construct: human thrombin, factor Xa, plasmin; test: Inactivation rate of factor Xa, incubation method; type: biochemical; conditions: Table II; 0.42 μM factor Xa, 66 μM inhibitor, 80 mM Hepes pH 7.5, 428 mM NaCl, 8% DMSO, 25° C.
Sequence (P00742 235-488 limits assumed): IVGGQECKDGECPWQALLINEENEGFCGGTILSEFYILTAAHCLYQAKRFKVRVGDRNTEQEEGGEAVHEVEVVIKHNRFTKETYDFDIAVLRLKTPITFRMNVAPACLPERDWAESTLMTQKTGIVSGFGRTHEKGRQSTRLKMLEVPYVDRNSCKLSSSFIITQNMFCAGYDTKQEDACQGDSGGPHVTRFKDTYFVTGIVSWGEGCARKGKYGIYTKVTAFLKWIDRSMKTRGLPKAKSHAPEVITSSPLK
Sequence (P00742 41-179 partner limits assumed): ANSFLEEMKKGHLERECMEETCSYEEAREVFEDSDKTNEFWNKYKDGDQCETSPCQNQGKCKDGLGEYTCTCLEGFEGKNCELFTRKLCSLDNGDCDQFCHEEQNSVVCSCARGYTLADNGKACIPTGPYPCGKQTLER
Readout kind: kobs /[I] factor Xa (M⁻¹ s⁻¹)
Answers are plain numbers, in M⁻¹ s⁻¹.

Some solved entries appear below for comparison.
>>> numeric_result("CC(C)CC(NC(=O)OC(C)(C)C)C(=O)NCC(=O)NC(c1ccc(C(=N)N)cc1)P(=O)(Oc1ccccc1)Oc1ccccc1 (mixture of isomers)")
10
>>> numeric_result("CC(C)(C)OC(=O)NC(Cc1ccccc1)C(=O)NCC(=O)NC(c1ccc(C(=N)N)cc1)P(=O)(Oc1ccccc1)Oc1ccccc1 (mixture of isomers)")
2.8
>>> numeric_result("CC(C)CC(NC(=O)OC(C)(C)C)C(=O)NC(CC(=O)OC(C)(C)C)C(=O)N1CCCC1C(=O)NC(c1ccc(C(=N)N)cc1)P(=O)(Oc1ccccc1)Oc1ccccc1 (mixture of isomers)")
8

// each listed molecule needs a value for kobs /[I] factor Xa
1. CC(C)CC(NC(=O)C(Cc1ccccc1)NC(=O)OC(C)(C)C)C(=O)NC(c1ccc(C(=N)N)cc1)P(=O)(Oc1ccccc1)Oc1ccccc1 (mixture of isomers)
2. CC(C)(C)OC(=O)NC(CO)C(=O)NC(c1ccc(C(=N)N)cc1)P(=O)(Oc1ccccc1)Oc1ccccc1 (mixture of isomers)

### Response
1: 1.4; 2: 3.5

// each listed molecule needs a value for kobs /[I] factor Xa
1. CC(C)CC(N)C(=O)NC(CC(=O)O)C(=O)N1CCCC1C(=O)NC(c1ccc(C(=N)N)cc1)P(=O)(Oc1ccccc1)Oc1ccccc1 (mixture of isomers)
2. N=C(N)c1ccc(C(NC(=O)CNC(=O)C(CCC(=O)O)NC(=O)OCc2ccccc2)P(=O)(Oc2ccccc2)Oc2ccccc2)cc1 (mixture of isomers)

### Response
1: 1.3; 2: 1.4

* * *

target: human thrombin (Homo sapiens, UniProt P00734); construct: bovine trypsin, human thrombin; assay type: biochemical; details: Table II; 0.07 μM thrombin, 0.25-42 μM inhibitor, 80 mM Hepes pH 7.5, 428 mM NaCl, 8% DMSO, 25° C.; NI = no inhibition
Readout kind: kobs /[I] human thrombin (M⁻¹ s⁻¹)
Answers are plain numbers, in M⁻¹ s⁻¹.

Some solved entries appear below for comparison.
>>> numeric_result("CC(C)C(NC(=O)OC(C)(C)C)C(=O)NC(C(=O)NC(c1ccc(C(=N)N)cc1)P(=O)(Oc1ccccc1)Oc1ccccc1)C(C)C (mixture of isomers)")
85
>>> numeric_result("CC(C)CC(N)C(=O)NC(CC(=O)O)C(=O)N1CCCC1C(=O)NC(c1ccc(C(=N)N)cc1)P(=O)(Oc1ccccc1)Oc1ccccc1 (mixture of isomers)")
65

Shift focus to the following entry.
### Prompt Given CC(C)CC(NC(=O)C(Cc1ccccc1)NC(=O)OC(C)(C)C)C(=O)NC(c1ccc(C(=N)N)cc1)P(=O)(Oc1ccccc1)Oc1ccccc1 (mixture of isomers) , report its kobs /[I] human thrombin on human thrombin (Homo sapiens, UniProt P00734).
### Response 921
